Give inhibition at 1 h, 0.1 µM for every item shown.
# TARGET OR SYSTEM: CYP11B (Rattus norvegicus, UniProt P15393+P30099)
# TEST NAME: Inhibition of Sprague-Dawley rat adrenal mitochondrial CYP11B assessed as decrease in conversion of 11-deoxycortisol to cortisol at 100 nM incubated for 60 mins by ELISA relative to control
# Assay type: protein assay
# SETTINGS: adrenal mitochondria, probe 11-deoxycortisol

Exam item: Please look at this compound and report its inhibition at 1 h, 0.1 µM: `CC(=O)N[C@@H]1CC[C@@]2(C)C(=CC[C@H]3C4=CC=C(n5ccnc5)[C@@]4(C)CC[C@@H]32)C1`
Marked response: < 32%

Exam item: Please look at this compound and report its inhibition at 1 h, 0.1 µM: `CN1C(=O)C[C@@]2(C)C1=CC[C@@H]1[C@@H]2CC[C@]2(C)C(c3cccnc3)=CC[C@@H]12`
Marked response: ≥ 50%

Exam item: Please look at this compound and report its inhibition at 1 h, 0.1 µM: C[C@]12CCCCC1C(=O)C[C@@H]1[C@@H]2CC[C@]2(C)C(n3ccnc3)=CC[C@@H]12 (stereo not given in full)
Marked response: < 32%

Exam item: Please look at this compound and report its inhibition at 1 h, 0.1 µM: `C[C@]12CC[C@H]3[C@@H](CC[C@H]4CC(=O)CC[C@@]43C)C1=CC=C2n1ccnc1`
Marked response: < 32%

Exam item: Please look at this compound and report its inhibition at 1 h, 0.1 µM: `COC(=O)N1CCC[C@@]2(C)[C@@H](CC[C@@H]3[C@@H]2CC[C@]2(C)C(n4ccnc4)=CC[C@@H]32)C1`
Marked response: ≥ 50%

Exam item: Please look at this compound and report its inhibition at 1 h, 0.1 µM: `CC(=O)O[C@H]1CC[C@@]2(C)C(=CC[C@H]3C4=CC=C(c5cccnc5)[C@@]4(C)CC[C@@H]32)C1`
Marked response: ≥ 50%

Exam item: Please look at this compound and report its inhibition at 1 h, 0.1 µM: `CC(=O)N[C@@H]1CC[C@@]2(C)C(=CC[C@@H]3[C@@H]2CC[C@]2(C)C(n4ccnc4)=CC[C@@H]32)C1`
Marked response: ≥ 50%

Exam item: Please look at this compound and report its inhibition at 1 h, 0.1 µM: `COc1cncc(C2=CC[C@H]3[C@@H]4CC=C5N(C)C(=O)C[C@]5(C)[C@H]4CC[C@]23C)c1`
Marked response: < 32%

Exam item: Please look at this compound and report its inhibition at 1 h, 0.1 µM: `CN1C(=O)CC[C@@]2(C)C1=CC[C@@H]1[C@@H]2CC[C@]2(C)C(n3cncc3C#N)=CC[C@@H]12`
Marked response: < 32%

Exam item: Please look at this compound and report its inhibition at 1 h, 0.1 µM: `CN1C(=O)CCC[C@@]2(C)C1=CC[C@@H]1[C@@H]2CC[C@]2(C)C(c3cccnc3)=CC[C@@H]12`
Marked response: ≥ 50%

Exam item: Please look at this compound and report its inhibition at 1 h, 0.1 µM: `Cc1cncc(C2=CC[C@H]3[C@@H]4CC=C5N(C)C(=O)C[C@]5(C)[C@H]4CC[C@]23C)c1`
Marked response: < 32%

Exam item: Please look at this compound and report its inhibition at 1 h, 0.1 µM: CCCC(=O)N1CCC2CC[C@@H]3[C@H](CC[C@]4(C)C(n5ccnc5)=CC[C@@H]34)[C@@]2(C)CC1 (stereo not given in full)
Marked response: < 32%

Exam item: Please look at this compound and report its inhibition at 1 h, 0.1 µM: `COc1cncc(C2=CC[C@H]3[C@@H]4CCC5=CC(=O)N(C)CC[C@]5(C)[C@H]4CC[C@]23C)c1`
Marked response: < 32%

Exam item: Please look at this compound and report its inhibition at 1 h, 0.1 µM: `CN1CC[C@@]2(C)C(=CC1=O)CC[C@H]1C3=CC=C(c4cccnc4)[C@@]3(C)CC[C@@H]12`
Marked response: < 32%

Exam item: Please look at this compound and report its inhibition at 1 h, 0.1 µM: `COc1cncc(C2=CC[C@H]3[C@@H]4CC=C5N(C)C(=O)CCC[C@]5(C)[C@H]4CC[C@]23C)c1`
Marked response: ≥ 50%
